Note to self: these compounds have Ki reported for D(1B) dopamine receptor (Homo sapiens) in various publications.

Answered examples (5):
Quick check: Ki on D(1B) dopamine receptor (Homo sapiens), item Cc1cccc(C2CNCCc3c2cc(O)c(O)c3Br)c1 (stereo not drawn) ?
13.7 nM

Quick check: Ki on D(1B) dopamine receptor (Homo sapiens), item CC(C)=CCC[C@]1(C)[C@@H](CC=C(C)C)C[C@]2(CC=C(C)C)C(=O)C(CC=C(C)C)C(=O)[C@]1(C(=O)C(C)C)C2=O (stereo partly drawn) ?
> 10000 nM

Quick check: Ki on D(1B) dopamine receptor (Homo sapiens), item CCN1CCCC1CNC(=O)c1cc(S(N)(=O)=O)ccc1OC (stereo not drawn) ?
> 10000 nM

Quick check: Ki on D(1B) dopamine receptor (Homo sapiens), item Cc1ccccc1C1CN(C)CCc2c1cc(O)c(O)c2Cl (stereo not drawn) ?
2.32 nM

Quick check: Ki on D(1B) dopamine receptor (Homo sapiens), item C=CCN1CCc2c(cc(O)c(O)c2Br)C(c2cccc(C)c2)C1 (stereo not drawn) ?
12 nM

Further cases:
Quick check: Ki on D(1B) dopamine receptor (Homo sapiens), item CCc1cc(Cl)c(OC)c(C(=O)NC[C@@H]2CCCN2CC)c1O ?
> 10000 nM

Quick check: Ki on D(1B) dopamine receptor (Homo sapiens), item O=c1cc(O)cc2oc(-c3ccc(O)c(-c4c(O)cc(O)c5c(=O)cc(-c6ccc(O)cc6)oc45)c3)cc(O)c1-2 ?
> 10000 nM

Quick check: Ki on D(1B) dopamine receptor (Homo sapiens), item Cc1cccc([C@H]2CN(C)CCc3c2cc(O)c(O)c3Cl)c1 ?
7.56 nM
